- assay_remarks: self-splicing fitness, log relative to wild type (ln ratio); higher = more splicing; Tetrahymena group I intron in knt gene, E. coli kanamycin selection, DiMSum; sequences stand for … in CUCUCU…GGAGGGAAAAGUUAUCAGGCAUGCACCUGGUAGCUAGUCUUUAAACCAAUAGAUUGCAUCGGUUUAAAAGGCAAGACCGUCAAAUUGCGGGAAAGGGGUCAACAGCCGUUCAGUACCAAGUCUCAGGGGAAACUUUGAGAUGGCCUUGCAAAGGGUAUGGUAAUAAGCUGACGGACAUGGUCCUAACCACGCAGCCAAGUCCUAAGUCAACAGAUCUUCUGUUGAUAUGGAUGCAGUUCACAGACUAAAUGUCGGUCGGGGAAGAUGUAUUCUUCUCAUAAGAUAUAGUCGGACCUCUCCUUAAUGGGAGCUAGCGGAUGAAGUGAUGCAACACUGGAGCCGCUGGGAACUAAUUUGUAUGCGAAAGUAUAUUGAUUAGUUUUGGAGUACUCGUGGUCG;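 note: selection with 25 µg/mL kanamycin versus none on LB agar overnight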
- measurement_setup: 30 °C
Label rule, in plain words: self-splicing fitness (ln) of -3 and up is True, under -3 is False.

For this sequence, is measured self-splicing fitness (ln) -3 or higher? GACCAGCAAUAUUACGAGUU False

For this sequence, is measured self-splicing fitness (ln) -3 or higher? CUUCAGCAAUAUUACGAGUU False

For this sequence, is measured self-splicing fitness (ln) -3 or higher? GCUUAGCAAUAUUACGCUUG True

For this sequence, is measured self-splicing fitness (ln) -3 or higher? UGGCAGCAAUAUUACGGUGC False

For this sequence, is measured self-splicing fitness (ln) -3 or higher? UGCAAGCAAUAUUACGGUGC False

For this sequence, is measured self-splicing fitness (ln) -3 or higher? UCCGAGCAAUAUUACGAAGA True

For this sequence, is measured self-splicing fitness (ln) -3 or higher? AAACAGCAAUAUUACGAGAC False

For this sequence, is measured self-splicing fitness (ln) -3 or higher? UGAAAGCAAUAUUACGAUAU True

For this sequence, is measured self-splicing fitness (ln) -3 or higher? UCGAAGCAAUAUUACGUACG True

For this sequence, is measured self-splicing fitness (ln) -3 or higher? GCCCAGCAAUAUUACGAGCU False

For this sequence, is measured self-splicing fitness (ln) -3 or higher? CCCCAGCAAUAUUACGUUAC False

For this sequence, is measured self-splicing fitness (ln) -3 or higher? GCUAAGCAAUAUUACGGCGU True

For this sequence, is measured self-splicing fitness (ln) -3 or higher? UCACAGCAAUAUUACGUAGA True

For this sequence, is measured self-splicing fitness (ln) -3 or higher? CGACAGCAAUAUUACGCCUC True

For this sequence, is measured self-splicing fitness (ln) -3 or higher? AUCAAGCAAUAUUACGGCCA True

For this sequence, is measured self-splicing fitness (ln) -3 or higher? UUUAAGCAAUAUUACGGGGA True

For this sequence, is measured self-splicing fitness (ln) -3 or higher? CAAAAGCAAUAUUACGAUAU False

For this sequence, is measured self-splicing fitness (ln) -3 or higher? UCACAGCAAUAUUACGUACU True

For this sequence, is measured self-splicing fitness (ln) -3 or higher? AACCAGCAAUAUUACGGGUU True

For this sequence, is measured self-splicing fitness (ln) -3 or higher? GUAAAGCAAUAUUACGCUAA True

For this sequence, is measured self-splicing fitness (ln) -3 or higher? GAUGAGCAAUAUUACGGCAC True

For this sequence, is measured self-splicing fitness (ln) -3 or higher? AAAAAGCAAUAUUACGAUAG False
